# measured.on: T1, human MSLN-FL-his protein (human, UniProt Q13421 296-580)
# T1 construct: made in HEK293E cells, purified on nickel column; also called hMSLN-FL-his; human MSLN full-length protein; not shown: His tag
# protocol.details: SPR (Biacore), antibody captured on Protein A chip;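 note: measured at 25 °C, analyte injected 240 s in five twofold dilutions from 200 nM, dissociation up to 600 s, double-referenced, fitted with Langmuir 1:1 model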
Measured Kd by item
Return type: number; implicit unit nM.

INSERT INTO assay_data (binder, endpoint_value) VALUES
  ('S009-F3.80.22 (antibody, human IgG1, kappa, V domains shown, human-murine chimeric antibody, human IgG1/kappa constant regions) VH: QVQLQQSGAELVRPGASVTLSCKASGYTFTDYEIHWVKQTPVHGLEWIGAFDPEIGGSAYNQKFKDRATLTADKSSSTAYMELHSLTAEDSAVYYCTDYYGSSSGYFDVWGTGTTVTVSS VL: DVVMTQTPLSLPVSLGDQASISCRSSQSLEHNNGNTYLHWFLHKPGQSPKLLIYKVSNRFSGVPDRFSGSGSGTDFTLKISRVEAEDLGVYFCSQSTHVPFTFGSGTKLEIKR', 151),
  ('S009-F2.16.10 (antibody, human IgG1, kappa, V domains shown, human-murine chimeric antibody, human IgG1/kappa constant regions) VH: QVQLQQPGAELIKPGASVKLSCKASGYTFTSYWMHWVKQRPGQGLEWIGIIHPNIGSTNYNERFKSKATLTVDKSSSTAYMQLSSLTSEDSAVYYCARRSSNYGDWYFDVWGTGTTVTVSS VL: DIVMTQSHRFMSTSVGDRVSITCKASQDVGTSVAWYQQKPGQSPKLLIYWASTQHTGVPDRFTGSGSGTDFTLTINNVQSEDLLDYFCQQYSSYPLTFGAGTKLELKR', 1.51),
  ('S009-F2.38.12 (antibody, human IgG1, kappa, V domains shown, human-murine chimeric antibody, human IgG1/kappa constant regions) VH: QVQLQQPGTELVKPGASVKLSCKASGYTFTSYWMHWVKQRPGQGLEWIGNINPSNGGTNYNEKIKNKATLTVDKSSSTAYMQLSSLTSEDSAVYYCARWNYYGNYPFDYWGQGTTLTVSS VL: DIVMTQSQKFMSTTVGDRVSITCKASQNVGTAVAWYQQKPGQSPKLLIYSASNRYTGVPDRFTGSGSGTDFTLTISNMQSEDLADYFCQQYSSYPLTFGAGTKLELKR', 30.8),
  ('S009-F1.56.1 (antibody, human IgG1, kappa, V domains shown, human-murine chimeric antibody, human IgG1/kappa constant regions) VH: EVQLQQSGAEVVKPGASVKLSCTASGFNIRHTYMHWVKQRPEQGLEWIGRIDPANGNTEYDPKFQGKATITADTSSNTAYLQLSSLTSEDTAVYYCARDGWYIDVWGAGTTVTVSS VL: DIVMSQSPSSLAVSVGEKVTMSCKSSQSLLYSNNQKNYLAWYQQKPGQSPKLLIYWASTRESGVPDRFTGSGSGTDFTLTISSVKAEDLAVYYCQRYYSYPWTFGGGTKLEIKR', 0.889);

Reported Kd for S009-F1.2.12 (antibody, human IgG1, kappa, V domains shown, human-murine chimeric antibody, human IgG1/kappa constant regions) VH: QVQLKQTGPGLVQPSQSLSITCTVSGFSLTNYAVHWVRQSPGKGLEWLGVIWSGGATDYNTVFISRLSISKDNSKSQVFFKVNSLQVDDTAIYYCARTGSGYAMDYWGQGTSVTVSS VL: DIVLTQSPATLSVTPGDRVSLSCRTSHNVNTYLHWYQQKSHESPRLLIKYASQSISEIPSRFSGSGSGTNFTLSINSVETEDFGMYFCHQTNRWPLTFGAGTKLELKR : what is it?
15.8
